assay: in vitro; format: cell-based; conditions: human
Positions of bridges follow the written chain, without caps; N, C: chain ends. Residues, ends and D or L forms follow the SMILES beside them.
reportedMetric: IC50

Below are worked cases with known answers.
[[record]]
molecule = "CC(=O)N[C@H]1CSSC[C@@H](C(N)=O)NC(=O)[C@H](CO)NC(=O)[C@H](CO)NC(=O)[C@H](C(C)C)NC(=O)CNC(=O)[C@H](Cc2c[nH]cn2)NC(=O)[C@H](CO)NC1=O [reference compound] (Ac-CSHGVSSC-NH2; disulfide 1-8)"
reportedmetric = "IC50"
endpointvalue = "> 100 µM"

[[record]]
molecule = "CC(C)[C@@H]1NC(=O)[C@H](C)NC(=O)[C@H](Cc2c[nH]cn2)NC(=O)[C@H](C)NC(=O)[C@@H](N)CSSC[C@@H](C(N)=O)NC(=O)[C@H](CC(=O)O)NC1=O [H-CAHAVDC-NH2, H-Cys-Ala-His-Ala-Val-Asp-Cys-NH2] (H-CAHAVDC-NH2; disulfide 1-7)"
reportedmetric = "IC50"
endpointvalue = "> 100 µM"

[[record]]
molecule = "CC(=O)N[C@H]1CSSC[C@@H](C(N)=O)NC(=O)[C@H](C(C)C)NC(=O)[C@H](C)NC(=O)[C@H](Cc2c[nH]cn2)NC(=O)[C@H](CO)NC1=O [N-Ac-CSHAVC-NH2, N-Ac-Cys-Ser-His-Ala-Val-Cys-NH2] (Ac-CSHAVC-NH2; disulfide 1-6)"
reportedmetric = "IC50"
endpointvalue = "> 100 µM"


Switching to the query record.
// field: IC50; key: CC(=O)N[C@H]1CSSC[C@@H](C(N)=O)NC(=O)[C@H](Cc2c[nH]cn2)NC(=O)CNC(=O)[C@H](C(C)C)NC1=O [N-Ac-CVGHC-NH2, reference compound] (Ac-CVGHC-NH2; disulfide 1-5 (inferred)) ; value = > 100 µM

* * *

assay: in vitro; format: cell-based; settings: human
pIC50: −log10 of the molar value. Positions of bridges follow the written chain, without caps; N, C: chain ends. Residues, ends and D or L forms follow the SMILES beside them.
# pIC50 per record follows

Record excerpt, results attached:
[[record]]
compound = "CC[C@H](C)[C@@H]1NC(=O)[C@H](CC(=O)O)NC(=O)[C@H](C(C)C)NC(=O)[C@H](C)NC(=O)[C@H](Cc2c[nH]cn2)NC(=O)[C@H](C)NC(=O)[C@@H](NC(C)=O)CSSC[C@@H](C(N)=O)NC1=O (Ac-CAHAVDIC-NH2; disulfide 1-8)"
endpointvalue = "< 4.00"

[[record]]
compound = "CC(=O)N[C@H]1CSSC[C@@H](C(N)=O)NC(=O)[C@H](CO)NC(=O)[C@H](CO)NC(=O)[C@H](C(C)C)NC(=O)[C@H](C)NC(=O)[C@H](Cc2c[nH]cn2)NC(=O)[C@H](CO)NC1=O (Ac-CSHAVSSC-NH2; disulfide 1-8)"
endpointvalue = "< 4.00"

[[record]]
compound = "CC[C@H](C)[C@@H]1NC(=O)[C@H](CC(=O)O)NC(=O)[C@H](C(C)C)NC(=O)CNC(=O)[C@H](Cc2c[nH]cn2)NC(=O)[C@H](C)NC(=O)[C@@H](NC(C)=O)CSSC[C@@H](C(N)=O)NC1=O [reference compound] (Ac-CAHGVDIC-NH2; disulfide 1-8)"
endpointvalue = "< 4.00"

[[record]]
compound = "CC(=O)N[C@H]1CSSC[C@@H](C(N)=O)NC(=O)[C@H](C(C)C)NC(=O)CNC(=O)[C@H](Cc2c[nH]cn2)NC(=O)[C@H](CO)NC1=O [N-Ac-CSHGVC-NH2, reference compound] (Ac-CSHGVC-NH2; disulfide 1-6)"
endpointvalue = "< 4.00"

[[record]]
compound = "CC(=O)N[C@H]1CSSC[C@@H](C(N)=O)NC(=O)[C@H](Cc2c[nH]cn2)NC(=O)CNC(=O)[C@H](C(C)C)NC1=O [N-Ac-CVGHC-NH2, reference compound] (Ac-CVGHC-NH2; disulfide 1-5 (inferred))"
endpointvalue = "< 4.00"


compound CC[C@H](C)[C@@H]1NC(=O)[C@H](CC(=O)O)NC(=O)[C@H](C(C)C)NC(=O)[C@H](C)NC(=O)[C@H](Cc2c[nH]cn2)NC(=O)[C@H](C)NC(=O)[C@@H](N)CSSC[C@@H](C(N)=O)NC1=O (H-CAHAVDIC-NH2; disulfide 1-8) , pIC50 observed: < 4.00

* * *

tested on: PC-3; type: cell-based; details: human
pIC50: −log10 of the molar value. Positions of bridges follow the written chain, without caps; N, C: chain ends. Residues, ends and D or L forms follow the SMILES beside them.
reportedMetric: pIC50

// assay PC-3, entry CC(=O)N[C@H]1CCCCNC(=O)C[C@@H](C(N)=O)NC(=O)[C@H](C(C)C)NC(=O)[C@H](C)NC(=O)[C@H](Cc2c[nH]cn2)NC1=O (Ac-KHAVD-NH2; lactam 1-5 (inferred)) , pIC50 value = < 4.00

* * *

tested on: angiogenesis in chick embryonic chorioallantoic membranes; test: Chick chorioallantoic membrane angiogenesis assay; format: in vivo; conditions: 3, 17, and 33 μg/mesh
Positions of bridges follow the written chain, without caps; N, C: chain ends. Residues, ends and D or L forms follow the SMILES beside them.
reportedMetric: inhibition of angiogenesis, in words

[[record]]
molecule = "CC(=O)N[C@H]1CSSC[C@@H](C(N)=O)NC(=O)[C@H](CO)NC(=O)[C@H](CO)NC(=O)[C@H](C(C)C)NC(=O)[C@H](C)NC(=O)[C@H](Cc2c[nH]cn2)NC(=O)[C@H](CO)NC1=O (Ac-CSHAVSSC-NH2; disulfide 1-8)"
endpointvalue = "relatively inactive"

[[record]]
molecule = "CC(=O)N[C@H]1CSSC[C@@H](C(N)=O)NC(=O)[C@H](Cc2c[nH]cn2)NC(=O)[C@H](C)NC(=O)[C@H](C(C)C)NC1=O [N-Ac-CVAHC-NH2] (Ac-CVAHC-NH2; disulfide 1-5 (inferred))"
endpointvalue = "relatively inactive"

[[record]]
molecule = "CC(=O)N[C@H]1CSSC[C@@H](C(N)=O)NC(=O)[C@H](CO)NC(=O)[C@H](C(C)C)NC(=O)[C@H](C)NC(=O)[C@H](Cc2c[nH]cn2)NC1=O [N-Ac-CHAVSC-NH2, N-Ac-Cys-His-Ala-Val-Ser-Cys-NH2] (Ac-CHAVSC-NH2; disulfide 1-6)"
endpointvalue = "relatively inactive"


* * *

target: chick N-cadherin (Gallus gallus, UniProt P10288); construct: expressed in transfected cells; host or cells: 3T3 fibroblasts; test: N-cadherin dependent neurite outgrowth of rat cerebellar neurons on N-cadherin expressing 3T3 cells (Example 14); format: cell-based; details: NIH3T3; 125 μg/mL, 16-18 hours
Sequence (P10288 165-912): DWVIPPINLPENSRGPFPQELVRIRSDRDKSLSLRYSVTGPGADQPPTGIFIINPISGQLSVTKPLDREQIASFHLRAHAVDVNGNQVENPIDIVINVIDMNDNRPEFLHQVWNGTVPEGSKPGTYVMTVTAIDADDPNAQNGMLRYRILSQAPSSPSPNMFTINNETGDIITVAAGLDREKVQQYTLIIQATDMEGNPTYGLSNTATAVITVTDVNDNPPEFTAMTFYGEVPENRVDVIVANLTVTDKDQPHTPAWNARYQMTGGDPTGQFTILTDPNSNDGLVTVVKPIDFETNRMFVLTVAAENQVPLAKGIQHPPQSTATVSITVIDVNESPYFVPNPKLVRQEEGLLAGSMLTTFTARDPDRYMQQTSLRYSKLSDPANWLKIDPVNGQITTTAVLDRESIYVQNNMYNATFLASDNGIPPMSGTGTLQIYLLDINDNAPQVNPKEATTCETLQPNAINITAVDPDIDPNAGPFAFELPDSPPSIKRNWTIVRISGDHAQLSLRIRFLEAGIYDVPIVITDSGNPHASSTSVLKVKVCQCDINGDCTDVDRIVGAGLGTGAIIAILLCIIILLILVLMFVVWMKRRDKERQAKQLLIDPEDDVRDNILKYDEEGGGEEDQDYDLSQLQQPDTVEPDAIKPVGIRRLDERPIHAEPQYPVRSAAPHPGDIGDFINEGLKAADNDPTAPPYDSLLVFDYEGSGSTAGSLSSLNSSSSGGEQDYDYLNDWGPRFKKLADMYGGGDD
Positions of bridges follow the written chain, without caps; N, C: chain ends. Residues, ends and D or L forms follow the SMILES beside them.
reportedMetric: inhibition at 125 µg/mL (%)

Solved entries:
[[record]]
molecule = "CC(=O)N[C@H]1CSSC[C@@H](C(N)=O)NC(=O)[C@H](CC(=O)O)NC(=O)[C@H](C(C)C)NC(=O)[C@H](C)NC(=O)[C@H](Cc2c[nH]cn2)NC1=O [N-Ac-CHAVDC-NH2] (Ac-CHAVDC-NH2; disulfide 1-6)"
targetsystem = "chick N-cadherin (Gallus gallus, UniProt P10288)"
reportedmetric = "inhibition at 125 µg/mL"
endpointvalue = 77.1

[[record]]
molecule = "CC[C@H](C)[C@@H]1NC(=O)[C@H](CC(=O)O)NC(=O)[C@H](C(C)C)NC(=O)[C@H](C)NC(=O)[C@H](Cc2c[nH]cn2)NC(=O)[C@@H](NC(C)=O)CSSC[C@@H](C(N)=O)NC1=O [N-Ac-CHAVDIC-NH2] (Ac-CHAVDIC-NH2; disulfide 1-7)"
targetsystem = "chick N-cadherin (Gallus gallus, UniProt P10288)"
reportedmetric = "inhibition at 125 µg/mL"
endpointvalue = 88.3


P = CC[C@H](C)[C@@H]1NC(=O)[C@H](CC(=O)O)NC(=O)[C@H](C(C)C)NC(=O)[C@H](C)NC(=O)[C@H](Cc2c[nH]cn2)NC(=O)[C@@H](NC(C)=O)CSSC[C@@H](C(N)=O)NC(=O)[C@H](CC(N)=O)NC1=O (Ac-CHAVDINC-NH2; disulfide 1-8)
Q = CC(=O)N[C@H]1CSSC[C@@H](C(N)=O)NC(=O)[C@H](C(C)C)NC(=O)[C@H](C)NC(=O)[C@H](Cc2c[nH]cn2)NC1=O [N-Ac-CHAVC-NH2, N-Ac-Cys-His-Ala-Val-Cys-NH2]
I'm curious whether P or Q has the smaller inhibition at 125 µg/mL number. Which is it? Give the label under which the chosen entry appears.
Q

* * *

target: chick N-cadherin (Gallus gallus, UniProt P10288); construct: expressed in transfected cells; host or cells: 3T3 fibroblasts; assay: N-cadherin dependent neurite outgrowth of rat cerebellar neurons on N-cadherin expressing 3T3 cells (Example 14); assay type: cell-based; details: NIH3T3; 250 μg/mL, 16-18 hours
Positions of bridges follow the written chain, without caps; N, C: chain ends. Residues, ends and D or L forms follow the SMILES beside them.
reportedMetric: inhibition at 250 µg/mL (%)

Known inhibition at 250 µg/mL results, listed for orientation:
[[record]]
molecule = "CC(=O)N[C@H]1CSSC[C@@H](C(N)=O)NC(=O)[C@H](CC(=O)O)NC(=O)[C@H](C(C)C)NC(=O)[C@H](C)NC(=O)[C@H](Cc2c[nH]cn2)NC(=O)[C@H](C)NC1=O [N-Ac-CAHAVDC-NH2, N-Ac-Cys-Ala-His-Ala-Val-Asp-Cys-NH2] (Ac-CAHAVDC-NH2; disulfide 1-7)"
reportedmetric = "inhibition at 250 µg/mL"
unitinfo = "%"
endpointvalue = 13.3

[[record]]
molecule = "CC(=O)N[C@H]1CSSC[C@@H](C(N)=O)NC(=O)[C@H](CC(=O)O)NC(=O)[C@H](C(C)C)NC(=O)CNC(=O)[C@H](Cc2c[nH]cn2)NC(=O)[C@H](C)NC1=O [N-Ac-CAHGVDC-NH2, reference compound] (Ac-CAHGVDC-NH2; disulfide 1-7)"
reportedmetric = "inhibition at 250 µg/mL"
unitinfo = "%"
endpointvalue = 4

[[record]]
molecule = "CC(=O)N[C@H]1CSSC[C@@H](C(N)=O)NC(=O)[C@H](C(C)C)NC(=O)[C@H](C)NC(=O)[C@H](Cc2c[nH]cn2)NC(=O)[C@H](CO)NC1=O [N-Ac-CSHAVC-NH2, N-Ac-Cys-Ser-His-Ala-Val-Cys-NH2] (Ac-CSHAVC-NH2; disulfide 1-6)"
reportedmetric = "inhibition at 250 µg/mL"
unitinfo = "%"
endpointvalue = 11

[[record]]
molecule = "CC(=O)N[C@H]1CSSC[C@@H](C(N)=O)NC(=O)[C@H](CO)NC(=O)[C@H](C(C)C)NC(=O)CNC(=O)[C@H](Cc2c[nH]cn2)NC1=O [N-Ac-CHGVSC-NH2, reference compound] (Ac-CHGVSC-NH2; disulfide 1-6)"
reportedmetric = "inhibition at 250 µg/mL"
unitinfo = "%"
endpointvalue = -6.7

[[record]]
molecule = "CC(=O)N[C@H]1CSSC[C@@H](C(N)=O)NC(=O)[C@H](CO)NC(=O)[C@H](CO)NC(=O)[C@H](C(C)C)NC(=O)[C@H](C)NC(=O)[C@H](Cc2c[nH]cn2)NC(=O)[C@H](CO)NC1=O (Ac-CSHAVSSC-NH2; disulfide 1-8)"
reportedmetric = "inhibition at 250 µg/mL"
unitinfo = "%"
endpointvalue = -12.6


1 = CC[C@H](C)[C@@H]1NC(=O)[C@H](CC(=O)O)NC(=O)[C@H](C(C)C)NC(=O)[C@H](C)NC(=O)[C@H](Cc2c[nH]cn2)NC(=O)[C@H](C)NC(=O)[C@@H](N)CSSC[C@@H](C(N)=O)NC1=O (H-CAHAVDIC-NH2; disulfide 1-8)
2 = CC[C@H](C)[C@@H]1NC(=O)[C@H](CC(=O)O)NC(=O)[C@H](C(C)C)NC(=O)[C@H](C)NC(=O)[C@H](Cc2c[nH]cn2)NC(=O)[C@H](C)NC(=O)[C@@H](NC(C)=O)CSSC[C@@H](C(N)=O)NC1=O (Ac-CAHAVDIC-NH2; disulfide 1-8)
Could you determine which record has the numerically smaller inhibition at 250 µg/mL? Candidates: 1 and 2 API: response body contains the label of the selected item.
1
